- measurement_target: T1, human BDCA2 (human, UniProt Q8WTT0 1-213)
- T1 sequence (looked up): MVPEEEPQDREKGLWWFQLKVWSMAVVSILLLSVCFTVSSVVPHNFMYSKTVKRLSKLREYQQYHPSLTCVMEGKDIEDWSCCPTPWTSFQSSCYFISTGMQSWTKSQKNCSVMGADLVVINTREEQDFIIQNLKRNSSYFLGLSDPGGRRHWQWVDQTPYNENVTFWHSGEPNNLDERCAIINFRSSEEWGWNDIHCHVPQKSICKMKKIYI
- run_description: cell-based or functional assay
value_type: IC50 for inhibiting cytokine IFNα release, CpG-A stimulated human PBMC (pM)
Just the number please, in pM, no unit attached.

Input line: Which IC50 for inhibiting cytokine IFNα release, CpG-A stimulated human PBMC value belongs to mAb005 (antibody, V domains shown, Mouse hybridoma antibody) VH: QVQLKQSGPGLVQPSQSLSITCTVSGFSLTNYGVHWVRQSPGKGLEWLGVIWSGESTDYDAAFISRLSISKDNSKSQVFFKMNSLQADDSAIYYCARRRSHYYGYVMDYWGQGTSVTVSS VL: DIVLTQSPASLAVSLGQRATISCKASQSIDYDGIGYLNWYQHKPGQPPKLLIYAASNLESGIPARFSGSGSGTDFTLNIHPVEEEDAATYYCQQSNEDPPTFGSGTKLEIK ?
Output line: 86.7

Input line: Which IC50 for inhibiting cytokine IFNα release, CpG-A stimulated human PBMC value belongs to mAb033 (antibody, V domains shown, Mouse hybridoma antibody) VH: EVQMVESGGDLVKPGDSLKLSCAASGFTFRSYGMSWVRQTPDKRLEWVATISSGDSYTYYPDSVKGRFTISRDNAKNTLYLQMSSLKSEDTALYYCARQIYYDYAYYFDFWGQGTTLTVSS VL: DIVLTQSPASLAVSLGQRATISCRASESVSFRTSHLMHWYQQKPGQPPKLLIYGASNLESGVPARFSGSGSETDFTLNIHPVEEEDAAAYFCQQSIEDPPTFGGGTKLEIK ?
Output line: 4.08

Input line: Which IC50 for inhibiting cytokine IFNα release, CpG-A stimulated human PBMC value belongs to mAb030 (antibody, V domains shown, Mouse hybridoma antibody) VH: DVQLQESGPGLVKPSQSLSLTCSVTGYSITSAYYWNWIRQFPGNKLECMGYISYDGSNYYNPSLKNRISITRDTSKNQFFLSLNSVTTEDTATYFCVRGGDYDDGGFAYWGQGTLVTVSA VL: DIQMTQSPASLSASVGETVTITCRASGNIHNYLAWYQQKQGKSPQLLVYNAKTLADGVPSRFSGSGSETQYSLKINSLQPEDFGNYFCQHFWIIPYTFGGGTKLEIK ?
Output line: 4.76

Input line: Which IC50 for inhibiting cytokine IFNα release, CpG-A stimulated human PBMC value belongs to mAb024 (antibody, V domains shown, Mouse hybridoma antibody) VH: EVQLVESGGDLVKPGGSLKLSCAASGFTFSSFGMSWVRQTPDKRLDWVATISSGDSYTYYPDSVKGRFSISRDNAKNTLYLQMSSLKSEDTAVYYCARQIYYDYAYYFDYWGQGTTLTVSS VL: DIVLTQSPASLAVSLGQRATISCRASESVSFRSSHLMHWYRQKPGQPPKLLIYAASNLESGVPARFSGSGSETDFTLNIHPVEEEDAAAYFCQQSIEDPPTFGGGTKLEIK ?
Output line: 2.74
